Several reports have described IC50 for Amine oxidase [flavin-containing] A (Homo sapiens, UniProt P21397); a selection of those results is presented here.

Request: Give IC50 for O=C(Nc1ccc([C@@H]2C[C@H]2NCC2CC2)cc1)c1ccc(-c2csnn2)cc1 (relative stereo) tested on Amine oxidase [flavin-containing] A (Homo sapiens, UniProt P21397).
Response: 0.1 µM

Request: Report IC50 on Amine oxidase [flavin-containing] A (Homo sapiens, UniProt P21397) for this entry: CS(=O)(=O)Nc1ccc(-c2coc3cc(C#CC4(O)CCCC4)ccc3c2=O)cc1
Response: > 130 µM

Request: Provide the reported IC50 (system: Amine oxidase [flavin-containing] A (Homo sapiens, UniProt P21397)) for NC(=O)CNC(=O)c1ccc(OCc2ccc(F)c(F)c2)cn1
Response: > 10 µM

Request: Give IC50 only, for Cc1cccc(Cl)c1C(=O)NCc1ccc(-c2cccc(=O)[nH]2)nc1 , using Amine oxidase [flavin-containing] A (Homo sapiens, UniProt P21397) data.
Response: > 10 µM

Request: With Amine oxidase [flavin-containing] A (Homo sapiens, UniProt P21397) as the test system, provide measured IC50 for this compound: COc1ccc(CN[C@@H]2C[C@H]2c2ccc(NC(=O)c3ccc(-c4ccccc4)cc3)cc2)cn1 (relative stereo)
Response: 0.85 µM

Request: State IC50 (Amine oxidase [flavin-containing] A (Homo sapiens, UniProt P21397)) of Cc1ccc(-c2ccc3cc(OC[C@H](O)CF)ccc3n2)cn1 .
Response: 0.713 µM

Request: Name the recorded IC50 of O=C(Nc1ccc([C@@H]2C[C@H]2NCC2CC2)cc1)c1ccc2c(c1)CCCC2 (relative stereo) , assay system Amine oxidase [flavin-containing] A (Homo sapiens, UniProt P21397).
Response: 9.1 µM

Request: State recorded IC50 with Amine oxidase [flavin-containing] A (Homo sapiens, UniProt P21397), entry O=C(Nc1ccc([C@@H]2C[C@H]2NC2CCCCCCC2)cc1)c1ccc(-c2ccccc2)cc1 (relative stereo) , no comment.
Response: > 10 µM

Request: Find the measured IC50 of Cc1cccc(Cl)c1C(=O)NCc1cnc(-c2cccc(=O)[nH]2)nc1 with Amine oxidase [flavin-containing] A (Homo sapiens, UniProt P21397) as test system.
Response: > 10 µM

Request: Answer briefly: IC50 recorded on Amine oxidase [flavin-containing] A (Homo sapiens, UniProt P21397) for COC[C@H](C)N1C(=O)c2ccc(OCc3ccc(F)c(F)c3)cc2C1=O
Response: 3.5 µM

Request: Find IC50 for CS(=O)(=O)Nc1ccc(-c2coc3cc(C#CC4CCN(C(=O)C5CC5)CC4)ccc3c2=O)cc1 on Amine oxidase [flavin-containing] A (Homo sapiens, UniProt P21397) and write it down.
Response: > 130 µM

Request: Consider the compound O=C(Nc1ccc([C@@H]2C[C@H]2NCC2CC2)cc1)c1ccc2cc[nH]c2c1 (relative stereo) tested on Amine oxidase [flavin-containing] A (Homo sapiens, UniProt P21397); state its IC50.
Response: > 10 µM

Request: Provide IC50, tested on Amine oxidase [flavin-containing] A (Homo sapiens, UniProt P21397), for O=C(NCc1ccc(-c2cccc(=O)[nH]2)nc1)c1c(Cl)cccc1Cl .
Response: > 10 µM

Request: # lookup: Amine oxidase [flavin-containing] A (Homo sapiens, UniProt P21397) IC50, key = CC(C)(O)C(=O)N1CC(C#Cc2ccc3c(=O)c(-c4ccc(NS(C)(=O)=O)cc4)coc3c2)C1
Response: > 130 µM

Request: Report IC50 on Amine oxidase [flavin-containing] A (Homo sapiens, UniProt P21397) for this entry: COc1ccccc1-c1nc(COc2ccc3c(=O)n(-c4ccc(O)cc4)cnc3c2)no1
Response: > 10 µM

Request: Find the measured IC50 of NC(=O)[C@H](CO)N1C(=O)c2ccc(OCc3cccc(F)c3)cc2C1=O with Amine oxidase [flavin-containing] A (Homo sapiens, UniProt P21397) as test system.
Response: > 10 µM

Request: Please indicate recorded IC50 of Cc1ccncc1-c1ccc2cc(OC[C@H](O)CF)ccc2n1 measured with Amine oxidase [flavin-containing] A (Homo sapiens, UniProt P21397).
Response: > 10 µM
